Hey, just so you know, these numbers are from paper PMC9430589.

target-entity: RpsA (ribosomal protein S1) (Deinococcus radiodurans R1) (UniProt Q9RSY6)
Sequence: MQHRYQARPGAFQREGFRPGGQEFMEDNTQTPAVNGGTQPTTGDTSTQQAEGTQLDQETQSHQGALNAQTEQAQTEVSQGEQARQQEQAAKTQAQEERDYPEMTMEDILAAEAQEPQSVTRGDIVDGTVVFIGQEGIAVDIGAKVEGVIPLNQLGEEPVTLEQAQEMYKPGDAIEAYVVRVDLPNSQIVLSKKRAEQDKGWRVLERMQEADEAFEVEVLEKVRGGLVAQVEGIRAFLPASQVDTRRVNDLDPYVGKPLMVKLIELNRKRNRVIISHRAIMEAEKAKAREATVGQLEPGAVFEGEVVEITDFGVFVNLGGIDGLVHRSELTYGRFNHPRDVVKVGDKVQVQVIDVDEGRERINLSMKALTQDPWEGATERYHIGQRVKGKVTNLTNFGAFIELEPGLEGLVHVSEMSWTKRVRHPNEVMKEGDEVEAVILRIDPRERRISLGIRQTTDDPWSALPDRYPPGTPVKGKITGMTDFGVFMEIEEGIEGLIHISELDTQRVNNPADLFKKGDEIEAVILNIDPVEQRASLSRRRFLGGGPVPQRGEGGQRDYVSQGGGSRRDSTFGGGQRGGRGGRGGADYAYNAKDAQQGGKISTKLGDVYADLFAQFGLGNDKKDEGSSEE
method-notes: EMSA
condition-parameters: 8-oxoG at position 16; EMSA: 20 mM Tris-HCl pH 8.0, 1 mM MgCl2, 20 mM KCl, 10 mM Na phosphate pH 8.0, 10% glycerol, 500 nM heparin, 1 nM RNA, 37 C 1 h (PNPase: TMK, 50 mM Tris-HCl pH …)

monomer-sequence	Kd (µM)
NNNGNNNNNGNNNNNGNNNNNGNN [8-oxoG x1 24-mer (random N, degenerate)]	1.71
